Measured values drawn from patent US12187705B2 for this set.

# Test system: Ctenocephalides felis
# EXPERIMENTAL DETAILS: Ctenocephalides felis in-vitro contact test adult cat flea
# Format: in vivo
# MEASUREMENT CONDITIONS: Ctenocephalides felis; 5 μg/cm^2 (=500 g/ha), after 48 hours; read-out: efficacy (fleas dead or moribund)
PARAMETER: pest or weed control at 5 µg/cm2, 5 µg/cm2 (%)

1) COC[C@H](NC(=O)c1cc(Cl)cc(S(C)(=O)=O)c1)c1ncnn1-c1ncccn1 [Example I-059]: 80
2) C[C@@H](NC(=O)c1cc(Cl)cc(S(C)(=O)=O)c1)c1ncnn1-c1ncc(C(F)(F)F)cn1 [Example I-095]: 100
3) C[C@H](NC(=O)c1cc(Cl)cc([S+]([O-])CC(F)(F)F)c1)c1ncnn1-c1ncccn1 (some centres unmarked) [Example I-092]: 80
4) C[C@@H](NC(=O)c1cc(Cl)cc(S(C)(=O)=O)c1)c1ncnn1-c1ncc(Cl)cn1 [Example I-038]: 100
5) CC(c1ncnn1-c1ncccn1)N(CC1CC1)C(=O)c1cccc(S(C)(=O)=O)c1 (centres unmarked) [Example I-001]: 80
6) C[C@@H](NC(=O)c1cc(Cl)cc(S(=O)(=O)C(F)(F)F)c1)c1ncnn1-c1ccc(C#N)cn1 [Example I-067]: 90
7) CC(c1ncnn1-c1ncccn1)N(CC1CC1)C(=O)c1cc(Cl)cc(C(=O)NC2CC2)c1 (centres unmarked) [Example I-007]: 100
8) CC(c1ncnn1-c1ncccn1)N(CC1CC1)C(=O)c1csc(Cl)c1 (centres unmarked) [Example I-021]: 100
9) CC(NC(=O)c1cc(Cl)cc(S(C)(=O)=O)c1)c1ncnn1-c1ncccn1 (centres unmarked) [Example I-020]: 100
10) C[C@@H](NC(=O)c1cc(Cl)cc(S(C)(=O)=O)c1)c1ncnn1-c1ccc(C(F)(F)F)cn1 [Example I-089]: 100
11) CCN(C(=O)c1cc(Cl)cc(S(C)(=O)=O)c1)C(C)c1ncnn1-c1ncccn1 (centres unmarked) [Example I-040]: 100
12) CC(c1ncnn1-c1ncccn1)N(CC1CC1)C(=O)c1cc(C(F)(F)F)n(C)n1 (centres unmarked) [Example I-025]: 100
13) CC(c1ncnn1-c1ncccn1)N(CC(F)F)C(=O)c1cc(Cl)cc(S(C)(=O)=O)c1 (centres unmarked) [Example I-041]: 90
14) C[C@@H](NC(=O)c1cc(Cl)cc(S(=O)(=O)C(F)(F)F)c1)c1ncnn1-c1ccccn1 [Example I-068]: 90
15) CC(c1ncnn1-c1ncccn1)N(CCC(F)(F)F)C(=O)c1cc(Cl)cc(S(C)(=O)=O)c1 (centres unmarked) [Example I-039]: 100
16) CC(C)S(=O)(=O)c1cc(Cl)cc(C(=O)N[C@@H](C)c2ncnn2-c2ncccn2)c1 [Example I-051]: 80
17) CSc1cc(Cl)cc(C(=O)N[C@H](C)c2ncnn2-c2ccc(C#N)cn2)c1 [Example I-066]: 100
18) C[C@H](NC(=O)c1cc(Cl)cc(S(C)(=O)=O)c1)c1nc(C(F)(F)F)nn1-c1ncccn1 [Example I-091]: 100
19) C[C@@H](NC(=O)c1cc(Cl)cc(S(=O)(=O)C(F)(F)F)c1)c1ncnn1-c1cnccn1 [Example I-074]: 90
20) CC(c1ncnn1-c1ncccn1)N(CC1CC1)C(=O)c1cc(Cl)cc(S(C)(=O)=O)c1 (centres unmarked) [Example I-003]: 100
21) CC(C)Sc1cc(Cl)cc(C(=O)N[C@@H](C)c2ncnn2-c2ncccn2)c1 [Example I-046]: 100
22) CC(c1ncnn1-c1ncccn1)N(CC1CC1)C(=O)c1cncc(S(=O)(=O)C(F)(F)F)c1 (centres unmarked) [Example I-006]: 90
23) C[C@@H](NC(=O)c1cc(Cl)cc([S+](C)[O-])c1)c1ncnn1-c1ccc(C#N)cn1 (some centres unmarked) [Example I-070]: 100

* * *

# Tested on: Myzus persicae
# EXPERIMENTAL DETAILS: Myzus persicae oral test
# Type: in vivo
# MEASUREMENT CONDITIONS: 120 h
mortality at 4 ppm: recorded values
PARAMETER: mortality at 4 ppm (%)

1) CC(C)S(=O)(=O)c1cc(Cl)cc(C(=O)N[C@@H](C)c2ncnn2-c2ncccn2)c1 [Example I-051]: 100
2) Cc1cnc(-n2ncnc2[C@@H](C)NC(=O)c2cc(Cl)cc(S(C)(=O)=O)c2)nc1 [Example I-096]: 100
3) CC(c1ncnn1-c1ncccn1)N(CC1CC1)C(=O)c1cc(Cl)c(Cl)s1 (stereo not drawn) [Example I-024]: 100
